Experiment: in vivo
Set-up: species or system female C3H/HeN mice
Settings: mouse, brain, iv, 40 mg/kg, 40 mg.kg^-1 i.v., 2h after dose, MEAN, read-out: Brain product Ic concentration
REPORTED_PROPERTY: concentration at 2 h (ng/g)
Please state the figure in ng/g; there is no need to write the unit.

Specify measured concentration at 2 h for `CO[C@H]1C(=O)[C@]2(C)[C@@H](OC)C[C@H]3OC[C@@]3(OC(C)=O)[C@H]2[C@H](OC(=O)c2ccccc2)[C@]2(O)C[C@H](OC(=O)[C@H](O)[C@@H](NC(=O)OC(C)(C)C)c3ccccc3)C(C)=C1C2(C)C` . 7590
